- Subject Of Test: PD-1-Ig/PD-L1-His (Homo sapiens)
- Construct: [hPD-L1(19-239)-tobacco vein mottling virus protease cleavage site (TVMV)-His]; made in house; host or cells: HEK293T cells
- Sequence (Q9NZQ7 with tags, fused parts or gaps): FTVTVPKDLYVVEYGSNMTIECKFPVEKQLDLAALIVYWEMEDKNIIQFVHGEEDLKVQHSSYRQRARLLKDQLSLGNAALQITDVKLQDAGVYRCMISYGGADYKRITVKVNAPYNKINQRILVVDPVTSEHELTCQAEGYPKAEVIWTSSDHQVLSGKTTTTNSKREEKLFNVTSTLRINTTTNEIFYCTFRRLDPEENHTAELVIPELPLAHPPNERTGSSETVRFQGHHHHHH
- Assay Info: PD-1/PD-L1 Homogenous Time-Resolved Fluorescence (HTRF) binding assay
- Condition: inhibition of PD-1-Ig binding to PD-L1-TVMV-His; numeric values
Starred links: 1 amine or outer side, 2 acyl side, 3 side chain; linkers in the order of their positions; H or OH if unused. Positions of bridges follow the written chain, without caps; N, C: chain ends. Non-standard residues stand in square brackets, D forms with d. Residues, ends and D or L forms follow the SMILES beside them. Tyrψ(CN4)Ala = C[C@@H](C(=O)[*:2])n1nnnc1[C@H](Cc1ccc(O)cc1)N[*:1]; X1 = CCCC[C@@H](C(=O)[*:2])n1nnnc1[C@H](Cc1c[nH]c2ccccc12)N[*:1]; Morpholine(3S-CO) = O=C(O)[C@@H]1COCCN1; X2 = O=C(Cn1nnnc1C1(N[*:1])CCCCC1)[*:2]; Hyp = O=C(O)[C@@H]1C[C@@H](O)CN1; NMeF = CN[C@@H](Cc1ccccc1)C(=O)O; NMeNle = CCCC[C@H](NC)C(=O)O; Dap = NC[C@H](N)C(=O)O; Sar = CNCC(=O)O
Reported IC50 values for a set of molecules
Supply the numeric figure in nM, leaving out any unit text.

Illustrative cases are given below, each with its answer.
{"columns": ["Molecule", "Numeric Value"],
 "data": [
  ["CCCC[C@H]1C(=O)N[C@@H](C)C(=O)N[C@H](C(=O)NCC(N)=O)CSCC(=O)N[C@@H](Cc2ccc(O)cc2)C(=O)N2CCOC[C@H]2C(=O)N[C@@H](CC(N)=O)C(=O)N2CCC[C@H]2C(=O)N[C@@H](CN)C(=O)N[C@@H](CC(C)C)C(=O)N2C[C@H](O)C[C@H]2C(=O)N[C@@H](Cc2c[nH]c3ccccc23)C(=O)N[C@@H](CO)C(=O)N[C@@H](Cc2c[nH]c3ccccc23)c2nnnn2[C@@H](CCCC)C(=O)N1C [Example 1055] ({CH2CO}-Y[Morpholine(3S-CO)]NP[Dap]L[Hyp]WS[X1][NMeNle]ACG-NH2; thioether N-13)", 8],
  ["CCCC[C@H]1C(=O)N(C)[C@@H](CCCC)C(=O)N[C@@H](CCCNC(=N)N)C(=O)N[C@H](C(=O)NCC(N)=O)CSCC(=O)N[C@@H](Cc2ccc(O)cc2)c2nnnn2[C@@H](C)C(=O)N[C@@H](CC(N)=O)C(=O)N2CCC[C@H]2C(=O)N[C@@H](Cc2cnc[nH]2)C(=O)N[C@@H](CC(C)C)C(=O)N(C)CC(=O)N[C@@H](Cc2c[nH]c3ccccc23)C(=O)N[C@@H](CO)C(=O)N[C@@H](Cc2c[nH]c3ccccc23)C(=O)N1C [Example 1012] ({CH2CO}-[Tyrψ(CN4)Ala]NPHL[Sar]WSW[NMeNle][NMeNle]RCG-NH2; thioether N-13)", 30]
]}

Pending molecule:
[ask] # lookup: PD-1-Ig/PD-L1-His (Homo sapiens) IC50, key = CCCC[C@H]1C(=O)N(C)CC(=O)N[C@@H](CC(=O)O)C(=O)N[C@@H](C(C)C)C(=O)N(C)[C@@H](Cc2ccccc2)C(=O)NC2(CCCCC2)c2nnnn2CC(=O)N[C@@H](Cc2c[nH]c3ccccc23)C(=O)N[C@@H](Cc2ccc(O)cc2)C(=O)N[C@@H](CC(C)C)C(=O)N[C@H](C(=O)NCC(N)=O)CSCC(=O)N[C@@H](Cc2ccccc2)C(=O)N(C)[C@@H](Cc2ccccc2)C(=O)N1C [Example 3003] ({CH2CO}-F[NMeF][NMeNle][Sar]DV[NMeF][X2]WYLCG-NH2; thioether N-12)
[reply] 590
